List of polymerase ribozyme fitness (log ratio) values.
B1: TPR 5TU (parent)
chain: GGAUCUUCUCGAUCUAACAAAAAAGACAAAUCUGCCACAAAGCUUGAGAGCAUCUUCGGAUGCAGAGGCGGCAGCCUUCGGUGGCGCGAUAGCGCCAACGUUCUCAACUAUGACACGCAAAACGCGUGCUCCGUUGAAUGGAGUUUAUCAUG

Variants of: B1
Test: polymerase ribozyme fitness, log enrichment relative to wild type (log ratio); higher = more active; in vitro selection for triplet polymerase activity
This sample holds only a part of the variants without activity.
Give the value as a plain number.

Record excerpt, results attached:
mut="G58C A60G" experimentalresult=0.746
mut="C87A G92U" experimentalresult=0.159
mut="C132U U135A" experimentalresult=-2.46
mut="G62C C93U U135A" experimentalresult=-3.41
mut="U135G U144G" experimentalresult=-2.41
mut="C57A A113C A119U" experimentalresult=-1.37
mut="C8A A21C" experimentalresult=-3.76
mut="C87G A142G" experimentalresult=-4.14
mut="A16C A113U C118G" experimentalresult=-3.27

*Q* Returns the measured polymerase ribozyme fitness (log ratio) for the input variant. Input: C18G U56A
*A* -0.693

All values here come from the RNAGym collection of RNA variant scans (doi:10.1073/pnas.2313332121).
